Test system: primary human mesenchymal stem cells (hMSCs)
Experiment: Chondrogenesis screening using primary human mesenchymal stem cells
Type: cell-based
Details: Homo sapiens, Mesenchymal stem cells, hMSC chondrogenesis; concentration required to induce 50% levels of chondrogenesis with TGF-β3 as positive control; read-out: Conc (nM) of 50% TGF-β3 activity
Procedure: Representative compounds were screened using primary human mesenchymal stem cells (hMSCs) to determine their ability to induce chondrogenesis (process by which cartilage is developed). […] Area of nodules in each well was normalized to the average of 3 DMSO treated wells on the same plate using Excel (Microsoft Inc.). The normalized averages (fold change over DMSO) of 2 or 3 replicate wells for each compound concentration were calculated. […]
readout label: EC50 (nM)

>>> assay_value("CCC(=O)Nc1cncc(-c2ccc3[nH]nc(-c4nc5c(N6CCCCC6)cncc5[nH]4)c3n2)c1")
900
>>> assay_value("O=C(Nc1cncc(-c2ccc3[nH]nc(-c4nc5c(-c6ccc(Cl)s6)ccnc5[nH]4)c3n2)c1)C1CCC1")
10
>>> assay_value("CC(C)(C)C(=O)Nc1cncc(-c2ccc3[nH]nc(-c4nc5c(N6CCCCC6)cncc5[nH]4)c3c2)c1")
100
>>> assay_value("c1cncc(-c2cc3c(-c4cc5c(-c6cccnc6)cncc5[nH]4)n[nH]c3cn2)c1")
100

----------
molecular target: UniProt:P49761; assay: CLK3 kinase activity assay (Z-lyte FRET); settings: Z-lyte Ser/Thr 18 peptide, 156 μM ATP, 1 h at room temperature;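 also: kinase activity read as coumarin/fluorescein emission ratio by FRET, unphosphorylated peptide as 0% and phosphorylated peptide as 100% control, values from non-linear regression of dose-response curves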
Sequence (P49761 whole entry): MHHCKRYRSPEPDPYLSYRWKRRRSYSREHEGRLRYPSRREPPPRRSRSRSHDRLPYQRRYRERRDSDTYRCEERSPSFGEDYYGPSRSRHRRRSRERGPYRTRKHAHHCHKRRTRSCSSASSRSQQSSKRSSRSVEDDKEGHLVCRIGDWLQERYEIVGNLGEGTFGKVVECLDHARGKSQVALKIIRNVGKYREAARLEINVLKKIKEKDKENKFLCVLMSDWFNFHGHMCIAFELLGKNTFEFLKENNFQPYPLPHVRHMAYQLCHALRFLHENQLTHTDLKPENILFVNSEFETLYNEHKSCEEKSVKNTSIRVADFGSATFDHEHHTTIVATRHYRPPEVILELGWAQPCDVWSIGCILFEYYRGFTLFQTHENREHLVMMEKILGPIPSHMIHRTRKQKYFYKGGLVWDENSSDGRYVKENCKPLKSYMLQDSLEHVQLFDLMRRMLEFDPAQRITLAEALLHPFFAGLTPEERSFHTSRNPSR
Lab note - cut at 200 nM for EC50: 1 if strictly below, 0 if not.

>>> classification("c1cncc(-c2cc3c(-c4nc5c(-c6cccnc6)nccc5[nH]4)n[nH]c3cn2)c1 [compound 182]")
0
>>> classification("CCNCc1cncc(-c2cc3c(-c4nc5c(-c6ccsc6)nccc5[nH]4)n[nH]c3cn2)c1 [compound 249]")
1
>>> classification("O=C(Nc1cncc(-c2cc3c(-c4cc5cnccc5[nH]4)n[nH]c3cn2)c1)C1CC1 [compound 426]")
1
>>> classification("FC1(F)CCN(Cc2cncc(-c3ccc4[nH]nc(-c5cc6c(-c7cccnc7)ccnc6[nH]5)c4c3)c2)C1 [compound 370]")
1
>>> classification("CN1CCN(c2nccc3[nH]c(-c4n[nH]c5ncc(-c6cncc(NC(=O)C7CCCC7)c6)cc45)cc23)CC1 [compound 481]")
0
>>> classification("CCNCc1cncc(-c2cnc3[nH]nc(-c4cc5c(-c6ccccc6F)cncc5[nH]4)c3c2)c1 [compound 334]")
1
>>> classification("CC(C)(C)CC(=O)Nc1cncc(-c2cc3c(-c4cc5cnccc5[nH]4)n[nH]c3cn2)c1 [compound 425]")
1
>>> classification("c1cc2cc(c1)-c1cncc3[nH]c(nc13)-c1n[nH]c3ccc(cc13)-c1cncc(c1)CNC2 [compound 618]")
1
>>> classification("Fc1ccccc1-c1nccc2[nH]c(-c3n[nH]c4cnc(-c5cncc(CN6CCCC6)c5)cc34)cc12 [compound 338]")
0
>>> classification("CCCC(=O)Nc1cncc(-c2cnc3[nH]nc(-c4nc5c(-c6ccoc6)cccc5[nH]4)c3c2)c1 [compound 230]")
1
>>> classification("O=C(Nc1cncc(-c2ccc3[nH]nc(-c4nc5c(-c6ccncc6)ccnc5[nH]4)c3n2)c1)C1CCCCC1 [compound 198]")
0
>>> classification("CN(C)CCN(C)c1ccc(NC(=O)c2n[nH]c3ccc(-c4cncc(CN5CCCCC5)c4)cc23)cn1 [compound 84]")
1
>>> classification("Cc1[nH]nc(C(=O)Nc2ccc(OC3CCN(C)CC3)nc2)c1/C=C/c1cccnc1 [compound 22]")
0
>>> classification("CCC(=O)Nc1cncc(-c2ccc3[nH]nc(-c4nc5c(N6CCCCC6)cncc5[nH]4)c3n2)c1 [compound 206]")
0
>>> classification("COc1cncc(-c2ccc3[nH]nc(-c4nc5c(-c6cccc(F)c6)nccc5[nH]4)c3n2)c1 [compound 148]")
1
